PROCEDURE_TEXT: Solubility in phosphate buffer pH=7.4
Assay type: physicochemical
CONDITION_SET: aqueous buffer, thermodynamic from solid; phosphate buffer pH=7.4, stirring 24 hours at room temperature, LC-MS/MS
Can you tell me solubility at 24 h for the items I'm about to list?
One number for each entry, in µg/mL.

Consider the reported solubility at 24 h for these molecules:
{"columns": ["MOLECULE", "EXPERIMENTAL_RESULT"],
 "data": [
  ["Cc1ccc(C(NC(=O)C2(c3ccc4[nH]cc(CCO)c4c3)CC2)c2ccc(C)o2)c(C)c1 (stereo not shown) [Cpd.A, reference compound]", 90],
  ["Cc1noc(C)c1C(NC(=O)C1(c2ccc3[nH]cc(CCO)c3c2)CC1)c1ccccc1 (stereo not shown)", 78.3],
  ["Cc1ccc(C(NC(=O)C2(c3ccc4[nH]cc(CCO)c4c3)CC2)C2CC2)c(C)c1 (stereo not shown)", 11.9],
  ["Cc1ccc(C(NC(=O)C2(c3ccc4[nH]cc(CCO)c4c3)CC2)c2cccc(C)n2)c(C)c1 (stereo not shown)", 5.2],
  ["Cc1ccc(C(NC(=O)C2(c3ccc4[nH]cc(CCOP(=O)([O-])[O-])c4c3)CC2)c2ccc(C)o2)c(C)c1.[Na+].[Na+] (stereo not shown)", 143000]
]}

Field: solubility at 24 h. Fill in for each record below.
1. Cc1ccc(C(NC(=O)C2(c3ccc4[nH]cc(CCO)c4c3)CC2)c2ccccc2)c(N2CCOCC2)c1 (stereo not shown)
2. COc1cc(C)ccc1C(NC(=O)C1(c2ccc3[nH]cc(CCOP(=O)([O-])[O-])c3c2)CC1)c1ccccc1.[Na+].[Na+] (stereo not shown)

Data returned:
[0.07, 11200]

Field: solubility at 24 h. Fill in for each record below.
1. Cc1ccc(C(NC(=O)C2(c3ccc4[nH]cc(CCOP(=O)([O-])[O-])c4c3)CC2)c2ccccc2)c(N2CCOCC2)c1.[Na+].[Na+] (stereo not shown)
2. COc1ccc(C(NC(=O)C2(c3ccc4[nH]cc(CCO)c4c3)CC2)c2ccccc2)c(C)c1 (stereo not shown)

Data returned:
1: 3640; 2: 3.7
